target: Human ATX protein (Homo sapiens); construct: made in house; assay: Autotaxin (ATX) FRET assay with FS-3 substrate; format: biochemical; details: FS-3 2 μM, ATX 1.0 μg/mL, 2 hours at room temperature; read-out: IC50 (ATX)
pIC50: −log10 of the molar value.
Each item that follows carries a reported pIC50.

Take a look at these entries with their results.
Form field: reported pIC50 of CC(C)(C)[C@H]1CC[C@H](Oc2ccc(C3=CCN(CCCC(=O)O)CC3)cc2)CC1 [Example 47]
≥ 5.30

Form field: reported pIC50 of CC[C@H]1CC[C@@H](Oc2ccc(C3CCN(CCCCC(=O)O)CC3)cc2)CC1 [Example 38]
< 5.00

Form field: reported pIC50 of CC(C)(C)[C@H]1CC[C@H](Oc2ccc(C3CCN(CCCC(=O)O)CC3)cc2)CC1 [Example 48]
≥ 5.30

New cases:
Form field: reported pIC50 of CC[C@H]1CC[C@H](Oc2ccc(C3=CCN(CCCCC(=O)O)CC3)cc2)CC1 [Example 31]
< 5.00

Form field: reported pIC50 of CC(C)(C)[C@H]1CC[C@H](Oc2ccc(N3CCN(CCC(=O)O)CC3)cc2)CC1 [Example 17]
< 5.00

Form field: reported pIC50 of CC(C)(C)[C@H]1CC[C@H](Oc2ccc(NC3CCCN(CCC(=O)O)C3)cc2)CC1 (relative stereo) [Example 13]
< 5.00

Form field: reported pIC50 of CC(C)(C)[C@H]1CC[C@H](Oc2cccc(C3CCCN(CCCC(=O)O)C3)c2)CC1 (some centres unmarked) [Example 8]
5.00 to 5.30

Form field: reported pIC50 of CC[C@H]1CC[C@H](Oc2ccc(C3=CCN(CCC(=O)O)CC3)cc2)CC1 [Example 27]
5.00 to 5.30

Form field: reported pIC50 of CC(C)(C)[C@H]1CC[C@H](Oc2ccc(C3CCCN(CCC(=O)O)C3)cc2)CC1 (some centres unmarked) [Example 3]
5.00 to 5.30

Form field: reported pIC50 of CC(C)(C)[C@H]1CC[C@H](Oc2cccc(C3CCCN(CCC(=O)O)C3)c2)CC1 (some centres unmarked) [Example 7]
5.00 to 5.30

Form field: reported pIC50 of O=C(O)CCCN1CCC(c2ccc(OC3CCC4(CCCC4)CC3)cc2)CC1 [Example 42]
5.00 to 5.30

Form field: reported pIC50 of CC(C)(C)[C@H]1CC[C@H](Oc2ccc(C3CCCC(N4CCC(C(=O)O)CC4)C3)cc2)CC1 (some centres unmarked) [Example 10]
< 5.00

Form field: reported pIC50 of CCCCCCCCOc1cccc(C2CCCN(CCC(=O)O)C2)c1 (centres unmarked) [Example 5]
5.00 to 5.30

Form field: reported pIC50 of CC[C@H]1CC[C@H](Oc2ccc(C3=CCN(CCCC(=O)O)CC3)cc2)CC1 [Example 29]
< 5.00

Form field: reported pIC50 of CCCCCCCCOc1cccc(C2CCCN(CCCC(=O)O)C2)c1 (centres unmarked) [Example 6]
5.00 to 5.30

Form field: reported pIC50 of O=C(O)CCCCN1CCC(c2ccc(OC3CCC4(CCCC4)CC3)cc2)CC1 [Example 44]
< 5.00
